System: Wolbachia pipientis
assay name: Anti-Wolbachia Cell-Based Screen
Format: functional
Parameters: scale not given: in the data most compounds retested in dose-response had high values
recorded conditions: 5 µM
The campaign covered roughly 48,000 compounds. About 13,000 (27%) showed an effect of 50% or more. This is one part of the list.
recorded metric: Percent Effect (%)
# unit: % | format: bare number

Sample answers from the record:
>  <molecule>
CCOCCCNC(=O)CN(c1ccc(C)c(C)c1)S(C)(=O)=O

>  <recorded metric>
Percent Effect

>  <readout number>
99.16

$$$$
>  <molecule>
CCOCCCNC(=O)CN(c1ccc(F)c(F)c1)S(C)(=O)=O

>  <recorded metric>
Percent Effect

>  <readout number>
103.3

$$$$
>  <molecule>
COC(CNC(=O)c1ccc[nH]1)c1cccc(Cl)c1 (centres undefined)

>  <recorded metric>
Percent Effect

>  <readout number>
-25.79

$$$$
>  <molecule>
FC(F)(F)c1ccc(-c2cc(NC3CCNCC3)nc3[nH]ccc23)nc1

>  <recorded metric>
Percent Effect

>  <readout number>
-3.524

$$$$

Please find the next molecule below.
Task: Record request: Percent Effect value, item c1ccc(-c2nnc(CN3CCCC3Cn3cncn3)o2)cc1 (centres undefined)
Output: 126.9
